Read-out: sulfotransferase 2A1 (SULT2A1), SULT2A1 (gene 6822)
Test: LTEA_HepaRG_SULT2A1: Life Technologies and Expression Analysis (LTEA) Assay for sulfotransferase 2A1 (SULT2A1) using HepaRG (AID 2283531)
Conditions: mRNA level, 48 h; actives raise or lower the signal
Calls of active or inactive are those of the source. Rule for the calls: active = hit-call score of the fitted dose curve at least 0.9, where 1 is the maximum; inactive = score below 0.9.
Classes used: active, inactive

COMPOUND: CCCCOC(=O)c1ccccc1C(=O)OCCCC
CLASS: inactive
//
COMPOUND: CCCC1COC(Cn2cncn2)(c2ccc(Cl)cc2Cl)O1 (stereo not drawn)
CLASS: active
//
COMPOUND: O=C(O)COc1nc(Cl)c(Cl)cc1Cl
CLASS: inactive
//
COMPOUND: CCNc1nc(Cl)nc(NCC)n1
CLASS: inactive
//
COMPOUND: C=CCC1=C(C)[C@@H](OC(=O)[C@@H]2[C@@H](C=C(C)C)C2(C)C)CC1=O
CLASS: inactive
//
COMPOUND: Oc1ccccc1-c1ccccc1
CLASS: inactive
//
COMPOUND: N#Cc1cc(Br)c(O)c(Br)c1
CLASS: active
//
COMPOUND: CC(C)C1(C)N=C(c2nc3ccccc3cc2C(=O)O)NC1=O (stereo not drawn)
CLASS: inactive
//
COMPOUND: CCOC(=O)CC(SP(=S)(OC)OC)C(=O)OCC (stereo not drawn)
CLASS: inactive
//
COMPOUND: C#CCOS(=O)OC1CCCCC1Oc1ccc(C(C)(C)C)cc1 (stereo not drawn)
CLASS: active
//
COMPOUND: COc1cnc(OC)n2nc(NS(=O)(=O)c3c(OCC(F)F)cccc3C(F)(F)F)nc12
CLASS: inactive
//
COMPOUND: COC(=O)c1ccccc1C(=O)OC
CLASS: inactive
//
COMPOUND: OC(c1ccc(Cl)cc1)(c1cncnc1)c1ccccc1Cl (stereo not drawn)
CLASS: active
